- Tested on: LOX IMVI melanoma
- protocol notes: NCI tumour cell line growth inhibition, 48 h
Kindly state TGI for each of the entries shown.

Solved cases below.
The recorded TGI for entry `CN(C)CCCNc1ccc2nnn3c4ccc(O)cc4c(=O)c1c23` equals 4.12 µM

The recorded TGI for entry `NCc1cccc(O)c1O` equals > 100 µM

The recorded TGI for entry `C=CC(=O)Nc1cc(N2CCN(CC)CC2)ccc1Nc1cc(N(C)C(=O)Nc2c(Cl)c(OC)cc(OC)c2Cl)ncn1` equals 11.9 µM

Hi there! I need TGI for each item below, if you can.
1. C=CCC1=C(C)C[C@@H]2CCC(=O)C=C12
2. CC1CCSC(N(C(=O)N(C)c2ccccc2)c2ccccc2)=N1 (stereo unspecified)
3. Cc1nc2c(n1C)C(=O)c1ccccc1C2=O
4. O=C(Nn1c(-c2ccccc2)nc2ccccc2c1=O)c1ccccc1O
5. O=P1(S)OC[C@H]2O[C@@H]3[C@H](F)[C@@H]2OP(O)(=S)OC[C@H]2O[C@H]([C@H](F)[C@@H]2O1)n1cnc2c(ncnc21)NC/C=C/CNc1ncnc2c1ncn23 (stereo partly specified)

1: > 100 µM; 2: > 100 µM; 3: > 100 µM; 4: > 100 µM; 5: > 100 µM

---

- Test system: MDA-MB-435
Respond only with the outcome that fits, drawn from Y for active, N for inactive

Consider the following illustrative entries.
// return assay outcome for `O=C(Oc1ccc(CO[N+](=O)[O-])cc1)c1ccccc1`
Y

// return assay outcome for `CSCCCNC(=O)c1ccc2c(c1)/C(=C/c1[nH]c(C)cc1C)C(=O)N2`
N

// return assay outcome for O=c1/c(=C\c2ccc(F)cc2)sc2n1C(c1ccc(F)cc1)C1=C(N=2)c2ccc3ccccc3c2OCC1 (stereo unspecified)
N

Further cases:
// return assay outcome for `CN(C)c1nc2ccccc2c2c1c1c(n2Cc2ccccc2)-c2ccccc2C1=O`
N

// return assay outcome for `CCCCCC[C@H](C)Nc1nc2ccccc2c2occc12`
N

// return assay outcome for COc1cc2c(cc1OCCCCCCN1CCN(CC(=O)Nc3ccc(Cl)cc3C(=O)c3ccccc3Cl)CC1)N=CC1CCCN1C2=O (stereo unspecified)
Y

---

- System: HCT-116 colon
- protocol notes: NCI tumour cell line growth inhibition, 48 h
Kindly state log10 TGI for each of the entries shown.
Plainly stated, the numbers are log10 of TGI given in µM.

The recorded log10 TGI for entry `c1ccc(CN2CCC(Nc3ccccc3)(c3nnnn3Cc3ccccc3)CC2)cc1` equals 1.73

The recorded log10 TGI for entry CN1CC2=C(NC(=S)NC2c2ccccc2)/C(=C/c2ccccc2)C1 (stereo not given) equals 1.80

The recorded log10 TGI for entry `c1ccc2c(-c3nc(-c4c[nH]c5ccncc45)cs3)c[nH]c2c1` equals 0.50

Hi there! I need log10 TGI for each item below, if you can.
1. Cc1cc(=O)[nH]c(NN2C(Cl)C(=O)C2c2ccc([N+](=O)[O-])cc2)n1 (stereo not given)
2. COc1ccc(OC)c(SC(CC(=O)c2ccccc2)c2ccccc2)c1 (stereo not given)
3. Nc1ccc(S(=O)(=O)Nc2nc3ccccc3nc2N2CCCCCC2)cc1
4. C=C1CCC2(C#N)[C@H]3[C@H](CC[C@@H]2C)[C@@H](C)C[C@@H](CC(C)(C)NC(=O)CN2CCC2=O)[C@H]13 (stereo not given in full)

1: 1.35; 2: 1.04; 3: 1.52; 4: 1.21

---

Kindly state TGI for each of the entries shown.
- System: OVCAR-5 ovarian
- protocol notes: NCI tumour cell line growth inhibition, 48 h

Solved cases below.
The recorded TGI for entry `O=C1C=CC(=O)c2c(O)c(NCCOCCO)c(Cl)c(O)c21` equals 34.1 µM

The recorded TGI for entry `Cc1nc2c(n1C)C(=O)c1ccccc1C2=O` equals > 100 µM

The recorded TGI for entry `C#Cc1nc2ccccc2c(=O)[nH]1` equals 2.59 µM

Hi there! I need TGI for each item below, if you can.
1. COc1cccc(C=O)c1[O-].[O]=[U](=[O])([OH2+])[OH2+]
2. O=C1NC(=O)C(C(CC(=O)c2ccc(Cl)cc2)c2ccc(Cl)cc2)C(=O)N1 (stereo not given)
3. COC(=O)COc1ccc(/C=C2/N=C(c3ccccc3)N(c3c(C)n(C)n(-c4ccccc4)c3=O)C2=O)cc1

1: > 100 µM; 2: > 100 µM; 3: > 100 µM

Hi there! I need TGI for each item below, if you can.
1. S=c1nc(N/N=C/c2ccco2)c2cn[nH]c2[nH]1
2. COc1cc2cc(C(=O)N3CC(COS(C)(=O)=O)c4ccc(O)cc43)[nH]c2c(OC)c1OC (stereo not given)

["> 100 µM", "0.0428 µM"]

Hi there! I need TGI for each item below, if you can.
1. COc1cc(C2C(Cl)C(=O)N2c2c(C)n(C)n(-c3ccccc3)c2=O)ccc1O (stereo not given)
2. CN(C)CCCNc1ccc2nnn3c4ccc(O)cc4c(=O)c1c23
3. COc1ccc(C(=O)CC(c2ccccc2)[C@H]2C(c3ccc(OC)cc3)=Nc3c(nc(SC)n(C)c3=O)NC2c2ccccc2)cc1 (stereo not given in full)
4. Cn1cc(C2=C(c3cn(C)c4ccc(Cl)cc34)C(=O)NC2=O)c2ccccc21
5. NNC(=O)C1(NC(=O)c2ccccc2)C(c2ccccc2)C(c2ccccc2)=NN1c1ccccc1 (stereo not given)
6. Cn1cc(-c2ccc3nnc(Sc4ccc5ncccc5c4)n3n2)cn1
7. C=CCO/N=C(\OC(=O)c1ccc([N+](=O)[O-])cc1)c1ccccc1
8. COc1cc(C2c3cc4c(cc3C3OC[C@@H]2C3CO)OCO4)cc(OC)c1OC (stereo not given in full)

1: 42.7 µM; 2: 23.2 µM; 3: > 100 µM; 4: > 21.9 µM; 5: > 100 µM; 6: > 100 µM; 7: > 100 µM; 8: > 100 µM

Hi there! I need TGI for each item below, if you can.
1. C[C@]12CC[C@H](O)CC1=CC[C@@H]1C2CC[C@]2(C)Nc3c(cnn3-c3ccccc3)CC12 (stereo not given in full)
2. C=C=C(CC(CC(=C)Br)(C(=O)OC)C(=O)OC)S(=O)(=O)c1ccccc1

1: 17.3 µM; 2: 3.43 µM

---

- Test system: A498 renal
- protocol notes: NCI tumour cell line growth inhibition, 48 h
measurement name: TGI

Solved cases below.
Kindly note: A498 renal, NCC(O)CSCc1ccc(Cl)cc1 (configuration not stated) , TGI value reported: > 100 µM

Kindly note: A498 renal, `Cc1ccc(S(=O)(=O)c2ccccc2[N+](=O)[O-])cc1` , TGI value reported: > 100 µM

Kindly note: A498 renal, `Cn1cc(-c2ccc3nnc(Sc4ccc5ncccc5c4)n3n2)cn1` , TGI value reported: > 93.1 µM

Kindly note: A498 renal, `O=c1[nH]c2nc(NC3CCOCC3)ncc2cc1Oc1ccc(F)cc1F` , TGI value reported: > 25 µM

Kindly note: A498 renal, CC(C)(C)C(=CS(=O)/N=C/c1ccccc1)C(C)(C)C (configuration not stated) , TGI value reported: > 100 µM

Kindly note: A498 renal, `CCN(CC)C(=S)SS(=O)(=O)c1cccc(N)c1` , TGI value reported: > 100 µM

Hi there! I need TGI for each item below, if you can.
1. Cc1nc(N)c(N2CCN(CN)CC2)c(=O)[nH]1
2. Cc1ccc(N=Nc2c(O)ccc3ccccc23)cc1
3. COc1cc(C2c3cc4c(cc3C3OC[C@@H]2C3CO)OCO4)cc(OC)c1OC (some centres not stated)
4. CCCSc1ccc2[nH]c(N3C(=O)/C(=C/c4ccccc4)N=C3c3ccccc3)cc2c1
5. O=C(Cc1ccc(Cl)c(Cl)c1)NCC1(N2CCCCC2)CCCCC1
6. CC(C)=CCNc1nc(Cl)nc2nc[nH]c12

> 100 µM
> 100 µM
> 100 µM
> 50 µM
> 100 µM
> 100 µM

---

- System: OVCAR-4 ovarian
- protocol notes: NCI tumour cell line growth inhibition, 48 h
Kindly state TGI for each of the entries shown.

Solved cases below.
The recorded TGI for entry `COc1ccc(CCc2cc(OC)cc(OC)c2)cc1` equals > 100 µM

The recorded TGI for entry `Cn1c(-c2ccc(/C=N/NC(=S)N/N=C/c3ccc(-c4c[n+]5ccsc5n4C)cc3)cc2)c[n+]2ccsc12` equals > 100 µM

The recorded TGI for entry `Cc1c(-c2ccnc(N)n2)c2c(n1Cc1ccccc1)C(=O)c1ccccc1C2=O` equals > 100 µM

The recorded TGI for entry `C=CCO/N=C(\OC(=O)c1ccc([N+](=O)[O-])cc1)c1ccccc1` equals > 100 µM

The recorded TGI for entry `CC(C)(C)n1c(=O)[nH]c(=O)n1C(C)(C)C` equals > 100 µM

Hi there! I need TGI for each item below, if you can.
1. NCc1cccc(O)c1O
2. O=c1/c(=C\c2ccc(F)cc2)sc2n1C(c1ccc(F)cc1)C1=C(N=2)c2ccc3ccccc3c2OCC1 (stereo unspecified)
3. COc1ccc(Nc2ccc3ccccc3c2-c2c(O)ccc3ccccc23)cc1
4. COc1ccc2[nH]c(O)c(/C=c3/cc4c(c(-c5ccc(F)c(OC)c5)n3)=Nc3ccccc3-4)c2c1
5. O=c1[nH]c2ccccc2n1CCCN1CCC(n2c(=O)[nH]c3cc(Cl)ccc32)CC1
6. C=C1C(=O)OC2CC(C)C3CC(O)OC(OCC)C3(C)CC12 (stereo unspecified)
7. N.N.N.N.N.O=[N+]([O-])[O-].[Co+3].[O-][Cl+3]([O-])([O-])[O-]

1. > 100 µM
2. > 100 µM
3. 41.9 µM
4. 16.3 µM
5. 37.9 µM
6. 50.3 µM
7. > 100 µM

Hi there! I need TGI for each item below, if you can.
1. O=C1OC[C@H]2[C@@H]1[C@H]1O[C@@H]2C2=C(CCC2)C1=O
2. N/N=C1\C(=O)N(c2ccc(Cl)cc2Cl)C(=O)C(=O)C1c1nc2ccccc2o1 (stereo unspecified)
3. OCc1ccc(-c2cscc2-c2ccc(CO)o2)o1
4. CCc1cc2c(c3c1CCCC3=O)CC1(Cc3ccc(C(=O)OC)cc3C1)C2 (stereo unspecified)

["> 100 µM", "> 100 µM", "49.4 µM", "> 100 µM"]
